# measured on: UniProt Q16539
# Sequence (Q16539 whole entry, looked up): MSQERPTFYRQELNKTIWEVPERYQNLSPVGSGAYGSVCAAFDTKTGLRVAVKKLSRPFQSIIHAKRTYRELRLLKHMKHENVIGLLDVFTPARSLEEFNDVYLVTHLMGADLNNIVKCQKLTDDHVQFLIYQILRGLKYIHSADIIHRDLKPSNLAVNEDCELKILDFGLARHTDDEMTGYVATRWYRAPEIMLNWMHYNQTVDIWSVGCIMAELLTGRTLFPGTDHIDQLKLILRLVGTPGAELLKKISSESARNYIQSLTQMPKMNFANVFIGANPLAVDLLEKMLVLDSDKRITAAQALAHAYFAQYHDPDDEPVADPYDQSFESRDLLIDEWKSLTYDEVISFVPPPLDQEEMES
# assay procedure: p38-alpha Inhibition
# run parameters: concentration not given here

{"entry smiles": "CSc1ccc(CNc2ccc3nc(-c4ccccc4F)nc(Nc4ccncc4)c3c2)cc1", "measured on": "UniProt Q16539", "inhibition": "> 90%"}
{"entry smiles": "COc1ccc(CNc2ccc3nc(-c4ccccc4F)nc(Nc4ccncc4)c3c2)cc1", "measured on": "UniProt Q16539", "inhibition": "> 90%"}
{"entry smiles": "CC(C)CNc1ccc2nc(-c3ccccc3F)nc(Nc3ccncc3)c2c1", "measured on": "UniProt Q16539", "inhibition": "> 90%"}
